- System: Plasmodium falciparum
- assay.summary: Antimalarial activity against multi-drug-resistant Plasmodium falciparum K1 by microculture radioisotope technique
- Assay type: functional, organism-based
We begin with a simple list: items and their reported IC50.
Give the quantity in µM, number only.

- smiles.repr: "CC(C)(O)[C@H]1CC[C@]2(C)[C@H]3C[C@@H](O)[C@@H]4[C@@]5(C)CCCC(C)(C)[C@@H]5[C@H](O)C[C@@]4(C)[C@]3(CO)CC[C@@H]12"
  observed.measurement: 9.8
- smiles.repr: "COc1cc(OC)c2c(O)c3c(c(-c4c(OC)cc(OC)c5c(O)c6c(cc45)[C@H](OC(C)=O)[C@H](C)OC6)c2c1)[C@H](OC(C)=O)[C@H](C)OC3"
  observed.measurement: 15

Now take the following molecule into account.
Query: Check Plasmodium falciparum data and give IC50 for COc1cc(OC)c2c(O)c3c(c(-c4c5c(c(O)c6c(OC)cc(OC)cc46)CO[C@@H](C)[C@H]5OC(C)=O)c2c1)[C@H](OC(C)=O)[C@H](C)OC3 .
Result: 10
